system: HCT116 cells; test: MTT cell viability; format: cell-based; settings: Homo sapiens, HCT-116, 24 h
pIC50: −log10 of the molar value.
endpoint_label: pIC50

>>> print(df.to_string())
                                   compound  meas_value
0  COc1ccc(/N=C2/c3ccccc3/C(=N/c3ccc(OC)cc3)C2(C)C)cc1 [ZYZ384]        4.82

====

Test system: A549 cells
Test: MTT cell viability
Format: cell-based
Conditions: Homo sapiens, 24 h
Method: The cytotoxicity of ZYZ384 was determined across several different cancer cell lines. 3‐(4,5‐Dimethylthiazol‐2‐yl)‐2,5‐diphenyltetrazolium bromide (MTT) assay was used to assess cell viability. […] Cell viability was assessed in several cancer cell lines and determined using the MTT assay in a 96‐well plate format. […] After 24 h of treatment, cell viability was determined by adding 1 mg/mL MTT‐containing medium for 4 h, followed by […] Dimethyl sulfoxide (DMSO) to dissolve formazan. […]
endpoint_label: IC50

                                   compound  meas_value
0  COc1ccc(/N=C2/c3ccccc3/C(=N/c3ccc(OC)cc3)C2(C)C)cc1     20.7 µM
